Protocol: Drug level in po dosed rat blood
Format: ADME, organism-based
Run Conditions: read-out: Activity
Property Label: AUC (µM·h)

- Compound: "Cc1cc([C@H](Nc2n[s+]([O-])nc2Nc2cccc(C(=O)N(C)C)c2O)C(C)C)oc1C (some centres undefined)"
  AUC (µM·h): 119
- Compound: "CC[C@@H](NC1=NS(=O)(=O)N=C1Nc1cccc(C(=O)N(C)C)c1O)c1ccccc1"
  AUC (µM·h): 2.3

A = CN(C)C(=O)c1cccc(N=C2NS(=O)(=O)N=C2N[C@@H](c2ccc3c(c2)OCCO3)C(C)(C)C)c1O
B = C[C@H](Nc1n[s+]([O-])nc1Nc1cccc(C(=O)N(C)C)c1O)C(C)(C)C (some centres undefined)
Q: Among A and B , whose measured AUC is the smaller figure? Please identify the chosen entry by its label.
A: A
